conditions: in methanol, 323.15 K
READOUT NAME: solubility (mole fraction)
Numbers only.

Problem: Recorded solubility (mole fraction) for O=C(O)c1ccc(Br)cn1 , please?
Result: 0.0315

---

conditions: in THF, 283.15 K
READOUT NAME: solubility (mole fraction)
One number for each entry.

Problem: Recorded solubility (mole fraction) for O=C(O)c1ccc(Br)cn1 , please?
Result: 0.0374

---

conditions: in isopropanol, 323.15 K
READOUT NAME: solubility (mole fraction)
Give bare numbers.

Problem: Recorded solubility (mole fraction) for O=C(O)c1ccc(Br)cn1 , please?
Result: 0.0394

---

details: in THF, 318.15 K
READOUT NAME: solubility (mole fraction)
One number for each entry.

Problem: Recorded solubility (mole fraction) for O=C(O)c1ccc(Br)cn1 , please?
Result: 0.0803

---

conditions: in methanol, 313.15 K
READOUT NAME: solubility (mole fraction)
Give bare numbers.

Problem: Recorded solubility (mole fraction) for O=C(O)c1ccc(Br)cn1 , please?
Result: 0.0229

---

settings: in ethanol, 313.15 K
READOUT NAME: solubility (mole fraction)
Numbers only.

Problem: Recorded solubility (mole fraction) for O=C(O)c1ccc(Br)cn1 , please?
Result: 0.028

---

conditions: in acetonitrile, 283.15 K
READOUT NAME: solubility (mole fraction)
Numbers only.

Problem: Recorded solubility (mole fraction) for O=C(O)c1ccc(Br)cn1 , please?
Result: 0.00219

---

settings: in ethanol, 298.15 K
READOUT NAME: solubility (mole fraction)

Problem: Recorded solubility (mole fraction) for O=C(O)c1ccc(Br)cn1 , please?
Result: 0.0175

---

conditions: in n-butanol, 303.15 K
READOUT NAME: solubility (mole fraction)
Numbers only.

Problem: Recorded solubility (mole fraction) for O=C(O)c1ccc(Br)cn1 , please?
Result: 0.0249

---

conditions: in THF, 303.15 K
READOUT NAME: solubility (mole fraction)
Answers are plain numbers.

Problem: Recorded solubility (mole fraction) for O=C(O)c1ccc(Br)cn1 , please?
Result: 0.0611

---

details: in ethanol, 278.15 K
READOUT NAME: solubility (mole fraction)
Numbers only.

Problem: Recorded solubility (mole fraction) for O=C(O)c1ccc(Br)cn1 , please?
Result: 0.00865

---

conditions: in isopropanol, 313.15 K
READOUT NAME: solubility (mole fraction)
Numbers only.

Problem: Recorded solubility (mole fraction) for O=C(O)c1ccc(Br)cn1 , please?
Result: 0.0292

---

conditions: in methanol, 308.15 K
READOUT NAME: solubility (mole fraction)
Numbers only.

Problem: Recorded solubility (mole fraction) for O=C(O)c1ccc(Br)cn1 , please?
Result: 0.0196

---

details: in methyl acetate, 283.15 K
READOUT NAME: solubility (mole fraction)
Numbers only.

Problem: Recorded solubility (mole fraction) for O=C(O)c1ccc(Br)cn1 , please?
Result: 0.0104

---

conditions: in methyl acetate, 293.15 K
READOUT NAME: solubility (mole fraction)
One number for each entry.

Problem: Recorded solubility (mole fraction) for O=C(O)c1ccc(Br)cn1 , please?
Result: 0.0131

---

conditions: in methyl acetate, 323.15 K
READOUT NAME: solubility (mole fraction)
Numbers only.

Problem: Recorded solubility (mole fraction) for O=C(O)c1ccc(Br)cn1 , please?
Result: 0.0244

---

settings: in ethyl acetate, 278.15 K
READOUT NAME: solubility (mole fraction)
Numbers only.

Problem: Recorded solubility (mole fraction) for O=C(O)c1ccc(Br)cn1 , please?
Result: 0.00491

---

settings: in isopropanol, 293.15 K
READOUT NAME: solubility (mole fraction)
Answers are plain numbers.

Problem: Recorded solubility (mole fraction) for O=C(O)c1ccc(Br)cn1 , please?
Result: 0.0152

---

conditions: in ethanol, 303.15 K
READOUT NAME: solubility (mole fraction)
Answers are plain numbers.

Problem: Recorded solubility (mole fraction) for O=C(O)c1ccc(Br)cn1 , please?
Result: 0.0209

---

settings: in methyl acetate, 313.15 K
READOUT NAME: solubility (mole fraction)
Answers are plain numbers.

Problem: Recorded solubility (mole fraction) for O=C(O)c1ccc(Br)cn1 , please?
Result: 0.0201

---

conditions: in methanol, 318.15 K
READOUT NAME: solubility (mole fraction)

Problem: Recorded solubility (mole fraction) for O=C(O)c1ccc(Br)cn1 , please?
Result: 0.0271

---

conditions: in ethyl acetate, 303.15 K
READOUT NAME: solubility (mole fraction)
One number for each entry.

Problem: Recorded solubility (mole fraction) for O=C(O)c1ccc(Br)cn1 , please?
Result: 0.011

---

details: in THF, 323.15 K
READOUT NAME: solubility (mole fraction)
One number for each entry.

Problem: Recorded solubility (mole fraction) for O=C(O)c1ccc(Br)cn1 , please?
Result: 0.0886

---

conditions: in ethyl acetate, 323.15 K
READOUT NAME: solubility (mole fraction)
Give bare numbers.

Problem: Recorded solubility (mole fraction) for O=C(O)c1ccc(Br)cn1 , please?
Result: 0.0186

---

conditions: in acetonitrile, 323.15 K
READOUT NAME: solubility (mole fraction)
Give bare numbers.

Problem: Recorded solubility (mole fraction) for O=C(O)c1ccc(Br)cn1 , please?
Result: 0.00797

---

details: in n-butanol, 313.15 K
READOUT NAME: solubility (mole fraction)
Numbers only.

Problem: Recorded solubility (mole fraction) for O=C(O)c1ccc(Br)cn1 , please?
Result: 0.0319

---

conditions: in isopropanol, 283.15 K
READOUT NAME: solubility (mole fraction)
Numbers only.

Problem: Recorded solubility (mole fraction) for O=C(O)c1ccc(Br)cn1 , please?
Result: 0.0107

---

conditions: in isopropanol, 278.15 K
READOUT NAME: solubility (mole fraction)
Numbers only.

Problem: Recorded solubility (mole fraction) for O=C(O)c1ccc(Br)cn1 , please?
Result: 0.0089

---

settings: in 1,4-dioxane, 293.15 K
READOUT NAME: solubility (mole fraction)
Numbers only.

Problem: Recorded solubility (mole fraction) for O=C(O)c1ccc(Br)cn1 , please?
Result: 0.0378

---

conditions: in isopropanol, 298.15 K
READOUT NAME: solubility (mole fraction)
Numbers only.

Problem: Recorded solubility (mole fraction) for O=C(O)c1ccc(Br)cn1 , please?
Result: 0.018

---

details: in acetonitrile, 318.15 K
READOUT NAME: solubility (mole fraction)
Numbers only.

Problem: Recorded solubility (mole fraction) for O=C(O)c1ccc(Br)cn1 , please?
Result: 0.00698

---

conditions: in n-propanol, 288.15 K
READOUT NAME: solubility (mole fraction)
Give bare numbers.

Problem: Recorded solubility (mole fraction) for O=C(O)c1ccc(Br)cn1 , please?
Result: 0.0152

---

details: in n-butanol, 308.15 K
READOUT NAME: solubility (mole fraction)
One number for each entry.

Problem: Recorded solubility (mole fraction) for O=C(O)c1ccc(Br)cn1 , please?
Result: 0.0283

---

conditions: in methanol, 283.15 K
READOUT NAME: solubility (mole fraction)
Numbers only.

Problem: Recorded solubility (mole fraction) for O=C(O)c1ccc(Br)cn1 , please?
Result: 0.00924

---

conditions: in isopropanol, 308.15 K
READOUT NAME: solubility (mole fraction)
Give bare numbers.

Problem: Recorded solubility (mole fraction) for O=C(O)c1ccc(Br)cn1 , please?
Result: 0.025

---

settings: in ethyl acetate, 283.15 K
READOUT NAME: solubility (mole fraction)
One number for each entry.

Problem: Recorded solubility (mole fraction) for O=C(O)c1ccc(Br)cn1 , please?
Result: 0.00583

---

settings: in n-butanol, 293.15 K
READOUT NAME: solubility (mole fraction)
Give bare numbers.

Problem: Recorded solubility (mole fraction) for O=C(O)c1ccc(Br)cn1 , please?
Result: 0.0189

---

conditions: in 1,4-dioxane, 313.15 K
READOUT NAME: solubility (mole fraction)
Give bare numbers.

Problem: Recorded solubility (mole fraction) for O=C(O)c1ccc(Br)cn1 , please?
Result: 0.0656

---

conditions: in isopropanol, 288.15 K
READOUT NAME: solubility (mole fraction)
Numbers only.

Problem: Recorded solubility (mole fraction) for O=C(O)c1ccc(Br)cn1 , please?
Result: 0.0128

---

details: in THF, 313.15 K
READOUT NAME: solubility (mole fraction)
Numbers only.

Problem: Recorded solubility (mole fraction) for O=C(O)c1ccc(Br)cn1 , please?
Result: 0.0742

---

conditions: in n-butanol, 288.15 K
READOUT NAME: solubility (mole fraction)
Numbers only.

Problem: Recorded solubility (mole fraction) for O=C(O)c1ccc(Br)cn1 , please?
Result: 0.0163

---

conditions: in ethyl acetate, 293.15 K
READOUT NAME: solubility (mole fraction)
Numbers only.

Problem: Recorded solubility (mole fraction) for O=C(O)c1ccc(Br)cn1 , please?
Result: 0.00802

---

conditions: in ethanol, 288.15 K
READOUT NAME: solubility (mole fraction)

Problem: Recorded solubility (mole fraction) for O=C(O)c1ccc(Br)cn1 , please?
Result: 0.0122
